In this section, each of the compounds is paired with its reported pIC50.
- subjectOfTest: Human immunodeficiency virus type 1 reverse transcriptase (Human immunodeficiency virus 1, UniProt Q72547, K103N/Y181C)
- measurementNotes: Inhibition of recombinant HIV1 reverse transcriptase K103N/Y181C double mutant using DIG-dUTP/biotin-dUTP/dTTP assessed as suppression of biotin-dUTP incorporation after 1 hr by ELISA
pIC50 field: float, defined as -log10 of concentration (mol/L).

In: Return reported pIC50; argument: Cc1cc(C)c(Oc2nc(NC3CCN(Cc4ccncc4)CC3)nc3ccsc23)c(C)c1
Out: 5.90

---

- System: Human immunodeficiency virus 1
- measurementNotes: Antiviral activity against HIV1 3B harboring reverse transcriptase E138K mutant infected in human MT4 cells assessed as protection against virus induced cytotoxicity after 5 days by MTT assay
- Format: functional, cell-based
- assayConditions: Human immunodeficiency virus 1, 3B, MT4, 120 h
reportedEndpoint: EC50
# answer = value followed by unit

> print(dat)
                       smilesrepresentation  reportedendpoint  reported
1  Cc1cc(C)c(Oc2nc(NC3CCN(Cc4cccc(C#N)c4)CC3)nc3ccsc23)c(C)c1              EC50   50.9 nM
2  Cc1cc(C)c(Oc2nc(NC3CCN(Cc4cccc(F)c4)CC3)nc3ccsc23)c(C)c1              EC50    172 nM
3  Cc1cc(C)c(Oc2nc(NC3CCN(Cc4ccc(S(N)(=O)=O)cc4)CC3)nc3ccsc23)c(C)c1              EC50   5500 nM

Continue with the molecule presented below.
In: Look up EC50 for this molecule: COC(=O)c1ccc(CN2CCC(Nc3nc(Oc4c(C)cc(C)cc4C)c4sccc4n3)CC2)cc1
Out: 39.5 nM

---

- measurementNotes: Selectivity index, ratio of CC50 for human mock-infected MT4 cells to EC50 for HIV1 3B harboring reverse transcriptase K103N mutant infected in human MT4 cells
- Type: toxicity, cell-based
- assayConditions: MT4 cells (mock-infected for CC50, HIV-1 infected for EC50)
reportedEndpoint: selectivity ratio
Just the number, please, no unit attached.

> print(dat)
                       smilesrepresentation  reported
1  Cc1cc(C)c(Oc2nc(NC3CCN(Cc4cccc(C(N)=O)c4)CC3)nc3ccsc23)c(C)c1        81
2  Cc1cc(C)c(Oc2nc(NC3CCN(Cc4ccc([N+](=O)[O-])cc4)CC3)nc3ccsc23)c(C)c1       120
3  Cc1cc(C)c(Oc2nc(NC3CCN(Cc4ccc(S(C)(=O)=O)cc4)CC3)nc3ccsc23)c(C)c1       548

Please find the next compound below.
In: Param item = COC(=O)c1ccc(CN2CCC(Nc3nc(Oc4c(C)cc(C)cc4C)c4sccc4n3)CC2)cc1 ; retrieve measured selectivity ratio.
Out: 263

---

- measurementNotes: Apparent volume of distribution during terminal phase in Sprague-Dawley rat plasma at 16 mg/kg administered through oral gavage measured at 5 mins to 24 hrs post dosing by LC/MS analysis
- Format: ADME, organism-based
- assayConditions: read-out: Vz/F
reportedEndpoint: Vd/F (L/kg)
Report as a plain number; the unit L/kg is understood.

In: Bench note: what Vd/F did Cc1cc(C#N)cc(C)c1Oc1nc(NC2CCN(Cc3ccc(S(N)(=O)=O)cc3)CC2)nc2ccsc12 show?
Out: 50.1

---

- measurementNotes: Selectivity index, ratio of CC50 for human mock-infected MT4 cells to EC50 for HIV1 3B harboring reverse transcriptase E138K mutant infected in human MT4 cells
- Type: toxicity, cell-based
- assayConditions: MT4 cells (mock-infected for CC50, HIV-1 infected for EC50)
reportedEndpoint: selectivity ratio

> print(dat)
                       smilesrepresentation  reported
1  Cc1cn([C@H]2C[C@H](N=[N+]=[N-])[C@@H](CO)O2)c(=O)[nH]c1=O    > 1030

In: Which selectivity ratio value belongs to CC(=O)NS(=O)(=O)c1ccc(CN2CCC(Nc3nc(Oc4c(C)cc(C#N)cc4C)c4sccc4n3)CC2)cc1 ?
Out: > 340

In: Record: Cc1cc(C#N)cc(C)c1Oc1nc(NC2CCN(Cc3cccc(S(N)(=O)=O)c3)CC2)nc2ccsc12
Out: > 35200

In: Now the same for Cc1cc(C)c(Oc2nc(NC3CCN(Cc4cccc(C#N)c4)CC3)nc3ccsc23)c(C)c1
Out: 339

In: Subsequent entry: Cc1cc(C)c(Oc2nc(NC3CCN(Cc4ccc(F)cc4F)CC3)nc3ccsc23)c(C)c1
Out: 80

In: What about this compound? Cc1cc(C#N)cc(C)c1Oc1nc(NC2CCN(Cc3ccc(NS(C)(=O)=O)cc3)CC2)nc2ccsc12
Out: 9900

In: Likewise for COC(=O)c1ccc(CN2CCC(Nc3nc(Oc4c(C)cc(C)cc4C)c4sccc4n3)CC2)cc1 ?
Out: 629

---

- Tested on: Human immunodeficiency virus 1
- measurementNotes: Antiviral activity against wild type HIV1 3B harboring reverse transcriptase infected in human MT4 cells assessed as protection against virus induced cytotoxicity after 5 days by MTT assay
- Format: functional, cell-based
- assayConditions: Human immunodeficiency virus 1, 3B, MT4, 120 h
Entries annotated with measured EC50
Numeric answer only, unit nM assumed.

> print(dat)
                       smilesrepresentation                   subjectoftest  reported
1  CC(=O)NS(=O)(=O)c1ccc(CN2CCC(Nc3nc(Oc4c(C)cc(C#N)cc4C)c4sccc4n3)CC2)cc1  Human immunodeficiency virus 1       5.2
2  Cc1cc(C#N)cc(C)c1Oc1nc(NC2CCN(Cc3ccc(C(N)=O)cc3)CC2)nc2ccsc12  Human immunodeficiency virus 1       1.4

In: Please report the recorded EC50 for Cc1cc(C)c(Oc2nc(NC3CCN(Cc4ccncc4)CC3)nc3ccsc23)c(C)c1 .
Out: 7.6

---

- measurementNotes: AUC (0 to t) in Sprague-Dawley rat plasma at 16 mg/kg administered through oral gavage measured at 5 mins to 24 hrs post dosing by LC/MS analysis
- Format: ADME, organism-based
- Set-up: time lower 0.083 hr, dose 16 mg/kg, time upper 24 hr, route oral
reportedEndpoint: AUC(0-t) (ng·h/mL)
Please respond with the number in ng·h/mL and leave the unit unwritten.

In: Give its AUC(0-t) value. Item: Cc1cc(C#N)cc(C)c1Oc1nc(NC2CCN(Cc3ccc(S(N)(=O)=O)cc3)CC2)nc2ccsc12
Out: 1670

---

- measurementNotes: Selectivity index, ratio of CC50 for human mock-infected MT4 cells to EC50 for HIV1 3B harboring reverse transcriptase L100I mutant infected in human MT4 cells
- Assay type: toxicity, cell-based
- assayConditions: MT4 cells (mock-infected for CC50, HIV-1 infected for EC50)
reportedEndpoint: selectivity ratio
The response must contain the number and no unit.

Completed entries (count: 2):
> print(dat)
                       smilesrepresentation  reported
1  CNS(=O)(=O)c1ccc(CN2CCC(Nc3nc(Oc4c(C)cc(C#N)cc4C)c4sccc4n3)CC2)cc1       972
2  Cc1cc(C)c(Oc2nc(NC3CCN(Cc4cccc(C#N)c4)CC3)nc3ccsc23)c(C)c1        36

In: Consider the molecule shown here: Cc1cc(C)c(Oc2nc(NC3CCN(Cc4ccc(C(N)=O)cc4)CC3)nc3ccsc23)c(C)c1 What is its recorded selectivity ratio?
Out: 60

In: Now the molecule Cc1cc(C)c(Oc2nc(NC3CCN(Cc4ccc(F)cc4F)CC3)nc3ccsc23)c(C)c1
Out: 11

---

As shown below, each of these molecules has a reported EC50 value.
- Tested on: Human immunodeficiency virus 1
- measurementNotes: Antiviral activity against HIV1 3B harboring reverse transcriptase F227L/V106A double mutant infected in human MT4 cells assessed as protection against virus induced cytotoxicity after 5 days by MTT assay
- Type: functional, cell-based
- assayConditions: Human immunodeficiency virus 1, 3B, MT4, 120 h
I only need the number, in nM, no unit after it.

Recorded EC50, per entry:
> print(dat)
                       smilesrepresentation  reported
1  Cc1cc(C)c(Oc2nc(NC3CCN(Cc4ccc(F)cc4F)CC3)nc3ccsc23)c(C)c1      6610
2  Cc1cc(C#N)cc(C)c1Oc1nc(NC2CCN(Cc3cccc(C(N)=O)c3)CC2)nc2ccsc12       130
3  Cc1cc(C)c(Oc2nc(NC3CCN(Cc4ccc(C(N)=O)cc4)CC3)nc3ccsc23)c(C)c1       107

In: Given the entry Cc1cc(C#N)cc(C)c1Oc1nc(Nc2ccc(C#N)cc2)nc(N)c1Br , what EC50 was observed with Human immunodeficiency virus 1?
Out: 29.4

In: Do the same for Cc1cc(C)c(Oc2nc(NC3CCN(Cc4ccc(S(C)(=O)=O)cc4)CC3)nc3ccsc23)c(C)c1 please
Out: 23.9

In: // query: Cc1cc(C)c(Oc2nc(NC3CCN(Cc4ccc(S(N)(=O)=O)cc4)CC3)nc3ccsc23)c(C)c1
Out: 4550

In: Now this one: Cc1cc(C#N)cc(C)c1Oc1nc(NC2CCN(Cc3cccc(S(N)(=O)=O)c3)CC2)nc2ccsc12
Out: 8.5
